# TARGET_ENTITY: T1, HLA-A*02:01 (human)
# T1 construct: Peptide-receptive HLA-A*02:01 monomer obtained by UV cleavage of a UV-sensitive ligand; captured on streptavidin plates; also called peptide-receptive MHC molecules; MHC class I
# METHOD_DESCRIPTION: UV-ligand exchange, anti-b2m ELISA; grade of peptide exchange yield (>10% = +; >20% = ++; >50 = +++; >75% = ++++)
# Text: Candidate peptides for T cell based therapies according to the present invention were further tested for their MHC binding capacity (affinity). The individual peptide-MHC complexes were produced by UV-ligand exchange, where a UV-sensitive peptide is cleaved upon UV-irradiation, and exchanged with the peptide of interest as analyzed. Only peptide candidates that can effectively bind and stabilize the peptide-receptive MHC molecules prevent dissociation of the MHC complexes. […]
MEASURED_PARAMETER: peptide exchange yield

Observe how each entry below is paired with its result.
>  <BINDER>
VLDINDNPPV

>  <peptide exchange yield>
50 to 75%

$$$$
>  <BINDER>
GLHQDFPSVVL

>  <peptide exchange yield>
50 to 75%

$$$$
>  <BINDER>
KLLPGVQYV

>  <peptide exchange yield>
> 75%

$$$$
>  <BINDER>
VLFSSPPVI

>  <peptide exchange yield>
> 75%

$$$$
>  <BINDER>
LLIAINPQV

>  <peptide exchange yield>
> 75%

$$$$
>  <BINDER>
AILGFALSEA

>  <peptide exchange yield>
> 75%

$$$$
>  <BINDER>
VLAENPDIFAV

>  <peptide exchange yield>
50 to 75%

$$$$
>  <BINDER>
SLSDIQPCL

>  <peptide exchange yield>
50 to 75%

$$$$
>  <BINDER>
LMAPAPSTV

>  <peptide exchange yield>
50 to 75%

$$$$
>  <BINDER>
LLTPLNLQI

>  <peptide exchange yield>
50 to 75%

$$$$

"LLPEDDTRDNV" yielded peptide exchange yield of 50 to 75%

"ALYDAELSQM" yielded peptide exchange yield of 50 to 75%

"SIWPALTQV" yielded peptide exchange yield of > 75%

Values from patent US20200155602A1
